Source of measurements: patent US20250288683A1

Target: Human BCL-XL protein (N-terminal HiBiT tagged BCL-XL in HT1080 cells) (Homo sapiens, UniProt Q07817)
Construct: expressed in transfected cells; host or cells: HT-1080 (ATCC CCL-121), stably transduced with lentivirus pLV-UBC-N-HiBiT-BCL-XL-PGK-puro and selected with puromycin
Sequence (Q07817 whole entry): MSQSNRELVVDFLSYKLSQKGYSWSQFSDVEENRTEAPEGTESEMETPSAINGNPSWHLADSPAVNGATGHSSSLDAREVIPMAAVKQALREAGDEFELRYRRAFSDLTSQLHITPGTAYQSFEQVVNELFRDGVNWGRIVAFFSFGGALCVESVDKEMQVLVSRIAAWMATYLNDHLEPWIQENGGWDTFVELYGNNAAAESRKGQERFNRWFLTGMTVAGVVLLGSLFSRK
Test: HiBiT based degradation assay
Type: cell-based
Details: HT1080 cells expressing N-terminal HiBiT tagged BCL-XL, 24 h, normalized with DMSO control

{"Compound": "Cc1ncsc1-c1ccc([C@H](C)NC(=O)[C@@H]2C[C@@H](O)CN2C(=O)[C@@H](NC(=O)CN2CCC(COc3cccc(-c4ccc(N5CCc6cccc(C(=O)Nc7nc8ccccc8s7)c6C5)nc4C(=O)O)c3C)CC2)C(C)(C)C)cc1 [Compound 127a]", "Ymin (24 h)": "A (Ymin < 50%)"}
{"Compound": "Cc1ncsc1-c1ccc([C@H](C)NC(=O)[C@@H]2C[C@@H](O)CN2C(=O)[C@@H](NC(=O)CC[C@@H](c2ccc(Oc3cccc(-c4ccc(N5CCc6cccc(C(=O)Nc7nc8ccccc8s7)c6C5)nc4C(=O)O)c3C)cc2)C(F)(F)F)C(C)(C)C)cc1 (relative stereo) [Compound 135a]", "Ymin (24 h)": "A (Ymin < 50%)"}
{"Compound": "Cc1ncsc1-c1ccc([C@H](C)NC(=O)[C@@H]2C[C@@H](O)CN2C(=O)[C@@H](NC(=O)C(C)(C)[C@H]2CC[C@@H](Oc3cccc(-c4ccc(N5CCc6cccc(C(=O)Nc7nc8ccccc8s7)c6C5)nc4C(=O)O)c3C)CC2)C(C)(C)C)cc1 (single isomer, unassigned) [Compound 138a]", "Ymin (24 h)": "A (Ymin < 50%)"}

---

Biological target: Human BCL-XL protein (N-terminal HiBiT tagged BCL-XL in HT1080 cells) (Homo sapiens)
Construct: expressed in transfected cells; host or cells: HT-1080 (ATCC CCL-121), stably transduced with lentivirus pLV-UBC-N-HiBiT-BCL-XL-PGK-puro and selected with puromycin
Assay: HiBiT based degradation assay
Type: cell-based
Conditions: HT1080 cells expressing N-terminal HiBiT tagged BCL-XL, 6 h, normalized with DMSO control
Quantity Name: Ymin (6 h)

{"Compound": "Cc1ncsc1-c1ccc([C@H](C)NC(=O)[C@@H]2C[C@@H](O)CN2C(=O)[C@@H](NC(=O)CCCCOc2cccc(-c3ccc(N4CCc5cccc(C(=O)Nc6nc7ccccc7s6)c5C4)nc3C(=O)O)c2C)C(C)(C)C)cc1 [Compound 108a]", "Experimental System": "Human BCL-XL protein (N-terminal HiBiT tagged BCL-XL in HT1080 cells) (Homo sapiens)", "Result": "A (Ymin < 50%)"}
{"Compound": "Cc1ncsc1-c1ccc([C@H](C)NC(=O)[C@@H]2C[C@@H](O)CN2C(=O)[C@@H](NC(=O)Cc2ccc(Oc3cccc(-c4ccc(N5CCc6cccc(C(=O)Nc7nc8ccccc8s7)c6C5)nc4C(=O)O)c3C)cc2)C(C)(C)C)cc1 [Compound 113a]", "Experimental System": "Human BCL-XL protein (N-terminal HiBiT tagged BCL-XL in HT1080 cells) (Homo sapiens)", "Result": "A (Ymin < 50%)"}
{"Compound": "Cc1ncsc1-c1ccc([C@H](C)NC(=O)[C@@H]2C[C@@H](O)CN2C(=O)[C@@H](NC(=O)CCCCCn2nc(C)c(-c3ccc(N4CCc5cccc(C(=O)Nc6nc7ccccc7s6)c5C4)nc3C(=O)O)c2C)C(C)(C)C)cc1 [Compound 101a]", "Experimental System": "Human BCL-XL protein (N-terminal HiBiT tagged BCL-XL in HT1080 cells) (Homo sapiens)", "Result": "A (Ymin < 50%)"}
